Collected Tm values appear next to each entry.
Assay: melting temperature; melt of duplexes
Details: sodium 0.0675 M; strand 1 µM
quantityKind: Tm

> print(dat)
                                  substance  observed
1  CGACGTGCATTATGTGCTG+CAGCACATGGCGCACGTCG ((((((((...((((((((+))))))))...))))))))   48.4 °C
2  CGACGTGCTCTATGTGCTG+CAGCACATAACGCACGTCG ((((((((..(((((((((+)))))))))..))))))))   49.7 °C
3  CGACGTGCGGTATGTGCTG+CAGCACATGAAGCACGTCG ((((((((...((((((((+))))))))...))))))))   55.3 °C
4  CGACGTGCATTATGTGCTG+CAGCACATGTAGCACGTCG ((((((((...((((((((+))))))))...))))))))   49.4 °C
5  CGACGTGCGAGATGTGCTG+CAGCACATCCAGCACGTCG ((((((((..(((((((((+)))))))))..))))))))   56.5 °C
6  CGACGTGCAATATGTGCTG+CAGCACATAGTGCACGTCG (((((((((.(((((((((+))))))))).)))))))))   53.9 °C
7  CGACGTGCCCAATGTGCTG+CAGCACATCCAGCACGTCG ((((((((...((((((((+))))))))...))))))))     49 °C

###

Assay: melting temperature; melt of duplexes
Conditions: sodium 0.0675 M; strand 1 µM
quantityKind: Tm

> print(dat)
                                   substance  observed
 1  CGACGTGCTAGATGTGCTG+CAGCACATCAGGCACGTCG ((((((((..(((((((((+)))))))))..))))))))   56.2 °C
 2  CGACGTGCGTCATGTGCTG+CAGCACATTGCGCACGTCG (((((((((..((((((((+))))))))..)))))))))   54.7 °C
 3  CGACGTGCGTGATGTGCTG+CAGCACATCCTGCACGTCG ((((((((..(((((((((+)))))))))..))))))))   55.6 °C
 4  CGACGTGCATGATGTGCTG+CAGCACATTCTGCACGTCG (((((((((..((((((((+))))))))..)))))))))   52.9 °C
 5  CGACGTGCATGATGTGCTG+CAGCACATGGAGCACGTCG ((((((((...((((((((+))))))))...))))))))   50.1 °C
 6  CGACGTGCCGAATGTGCTG+CAGCACATGACGCACGTCG ((((((((...((((((((+))))))))...))))))))   50.1 °C
 7  CGACGTGCTGAATGTGCTG+CAGCACATTGAGCACGTCG (((((((((.(((((((((+))))))))).)))))))))   56.6 °C
 8  CGACGTGCTTTATGTGCTG+CAGCACATCCGGCACGTCG ((((((((...((((((((+))))))))...))))))))   48.2 °C
 9  CGACGTGCTATATGTGCTG+CAGCACATCTCGCACGTCG ((((((((.(.((((((((+)))))))).).))))))))   48.3 °C
10  CGACGTGCTAGATGTGCTG+CAGCACATTAGGCACGTCG ((((((((...((((((((+))))))))...))))))))   52.2 °C
11  CGACGTGCAAAATGTGCTG+CAGCACATTGGGCACGTCG ((((((((..(((((((((+)))))))))..))))))))     54 °C
12  CGACGTGCCTGATGTGCTG+CAGCACATTCCGCACGTCG ((((((((...((((((((+))))))))...))))))))   48.5 °C
13  CGACGTGCGCCATGTGCTG+CAGCACATCCCGCACGTCG (((((((((..((((((((+))))))))..)))))))))   50.6 °C
14  CGACGTGCTCCATGTGCTG+CAGCACATGTCGCACGTCG ((((((((..(((((((((+)))))))))..))))))))   52.1 °C
15  CGACGTGCCCCATGTGCTG+CAGCACATGAGGCACGTCG (((((((((.(((((((((+))))))))).)))))))))   59.6 °C
